System: IL-1β production by mouse peritoneal macrophages
Assay: IL-1β production by mouse peritoneal macrophages (ELISA)
Type: cell-based
Conditions: dose 0.05 μM; IL-1β production, vs model group
Peptide text beside a SMILES is read from it. * marks the point of attachment. X58 = O=C1C=CC(=O)N1c1cccc(CCCCCCCCCCCC(=O)*)c1; X52 = O=C1C=CC(=O)N1c1ccccc1CCCCCCCC(=O)*
Each record here notes measured Inhibition rate.

# molecule, units, Inhibition rate
measured = [
    ("C[C@H](NC(=O)CNC(=O)[C@H](CCCNC(=N)N)NC(=O)CCCCCCCc1ccccc1N1C(=O)C=CC1=O)C(=O)N[C@@H](CC(=O)O)C(=O)N[C@@H](CCCNC(=N)N)C(=O)N[C@@H](C)C(=O)NCC(=O)NCC(=O)NCC(=O)NCC(=O)N[C@@H](CCCNC(=N)N)C(=O)NCC(=O)N[C@@H](CC(=O)O)C(=O)O [X19] (X52-RGADRAGGGGRGD-OH)", "%", 37.19),
    ("C[C@H](NC(=O)CNC(=O)[C@H](CCCNC(=N)N)NC(=O)CCCCCCCCCCCc1cccc(N2C(=O)C=CC2=O)c1)C(=O)N[C@@H](CC(=O)O)C(=O)N[C@@H](CCCNC(=N)N)C(=O)N[C@@H](C)C(=O)NCC(=O)NCC(=O)NCC(=O)NCC(=O)N[C@@H](CCCNC(=N)N)C(=O)NCC(=O)N[C@@H](CC(=O)O)C(=O)O [X35] (X58-RGADRAGGGGRGD-OH)", "%", 23.62),
]
